Cited source: patent US10828301B2

System: cultured human mast cells (CHMC)
experimentSummary: CHMC high cell density IgE activation: degranulation (hexos, tryptase, histamine), leukotriene (LTC4) and cytokine (TNFalpha, IL-13) assays
Format: cell-based
conditionInfo: anti-IgE activation, IL-13, read-out: CHMC high density IL-13
Threshold 2 µM: IC50 strictly smaller gives MET, otherwise NOT MET.

Does this compound meet the criterion IC50 < 2 µM? COc1ccc(Nc2ncc(F)c(Nc3cccc(O)c3)n2)cc1OC [Compound R926113] NOT MET

Does this compound meet the criterion IC50 < 2 µM? Nc1cc(Cl)cc(Nc2ncc(F)c(Nc3cc(N)cc(Cl)c3)n2)c1 [Compound R950141] MET

Does this compound meet the criterion IC50 < 2 µM? Cc1cc(Nc2ncc(F)c(Nc3cc(C)c(O)c(Cl)c3)n2)cc(Cl)c1O [Compound R940216] NOT MET

Does this compound meet the criterion IC50 < 2 µM? Fc1cnc(Nc2ccc3c(c2)OCCO3)nc1Nc1ccc2c(c1)OCCO2 [Compound R926109] MET

Does this compound meet the criterion IC50 < 2 µM? NC12OCCON1C(Nc1ccc3oc(CO)cc3c1)=NC=C2F (stereo not drawn) [Compound R926696] MET

###

System: ionophore-induced degranulation of mast and/or basophil cells
experimentSummary: Ionophore (ionomycin or A23187)-induced degranulation counter screen
Assay type: cell-based
conditionInfo: high density BMMC, ionomycin activation, hexosaminidase release; read-out: BMMC Ionomycin Hexos. IC50
measuredMetric: IC50

Recorded IC50 for Fc1cnc(Nc2ccc(N3CCOCC3)cc2)nc1Nc1ccc(N2CCOCC2)cc1 , please? > 10 µM

Recorded IC50 for Fc1cnc(Nc2ccc3c(c2)OC(F)(F)C(F)(F)O3)nc1Nc1ccc2c(c1)OC(F)(F)C(F)(F)O2 , please? > 10 µM

###

Assign IC50 to each entry below.
System: basophils in whole human peripheral blood
experimentSummary: Basophil IgE activation: histamine release assay
Type: cell-based
conditionInfo: Homo sapiens, anti-IgE activation
Express your answer in µM, writing the number without its unit.

Recorded IC50 for CCOc1ccc(Nc2nc(Nc3ccc(OC)c(OC)c3)ncc2F)cc1 , please? 0.95

Recorded IC50 for CCOc1ccc(Nc2ncc(F)c(Nc3ccc4c(c3)OCCO4)n2)cc1 , please? 1.55

Recorded IC50 for Nc1cccc(Nc2ncc(F)c(Nc3cccc(N)c3)n2)c1 , please? 0.19

Recorded IC50 for COc1ccc(Nc2ncc(F)c(Nc3ccc(OC)c(OC)c3)n2)cc1OC , please? 0.3

###

System: cultured human mast cells (CHMC)
experimentSummary: CHMC low cell density ionomycin activation: tryptase assay
Type: cell-based
conditionInfo: Homo sapiens, Mast cell, Low Density CHMC, ionomycin activation, tryptase readout; read-out: CHMC Ionomycin Tryptase
measuredMetric: IC50

Recorded IC50 for COC(=O)C1Cc2cc(Nc3ncc(F)c(Nc4ccc(F)c(F)c4)n3)ccc2O1 (racemic) , please? > 10 µM

Recorded IC50 for COC(=O)c1cccc(Nc2ncc(F)c(Nc3cccc(C(=O)OC)c3)n2)c1 , please? > 10 µM

Recorded IC50 for COC(=O)C1Cc2cc(Nc3ncc(F)c(Nc4ccc(OC)c(Cl)c4)n3)ccc2O1 (centres unmarked) , please? > 10 µM

Recorded IC50 for Nc1cccc(Nc2nc(Nc3cccc(O)c3)ncc2F)c1 , please? > 10 µM

Recorded IC50 for COc1ccc(Nc2nc(Nc3cccc(O)c3)ncc2F)cc1Cl , please? > 10 µM

Recorded IC50 for COC(=O)c1cc(Nc2ncc(F)c(Nc3ccc(O)c(C(=O)OC)c3)n2)ccc1O , please? > 10 µM

Recorded IC50 for OCC(O)COc1ccc(Nc2ncc(F)c(Nc3cccc(O)c3)n2)cc1 (centres unmarked) , please? > 10 µM

Recorded IC50 for Oc1cccc(Nc2ncc(-c3ccc4c(c3)OCO4)c(Nc3cccc(O)c3)n2)c1 , please? > 10 µM

###

System: basophils in whole human peripheral blood
experimentSummary: Basophil IgE activation: histamine release assay
Type: cell-based
conditionInfo: Homo sapiens, anti-IgE activation
Assign IC50 to each entry below.
Express your answer in nM, writing the number without its unit.

Recorded IC50 for COc1ccc(Nc2ncc(F)c(Nc3ccc(OC)cc3)n2)cc1 , please? 530

Recorded IC50 for CN(C)c1ccc(Nc2ncc(F)c(Nc3ccc(N(C)C)cc3)n2)cc1 , please? 2500

Recorded IC50 for CCOc1ccc(Nc2nc(Nc3ccc4c(c3)OCCO4)ncc2F)cc1 , please? 1750

Recorded IC50 for COc1ccc(Nc2ncc(F)c(Nc3ccc4c(c3)OCCO4)n2)cc1OC , please? 500

Recorded IC50 for Oc1cccc(Nc2ncc(F)c(Nc3ccc4c(c3)OCCO4)n2)c1 , please? 370

Recorded IC50 for O=C(NCCO)c1cc2cc(Nc3ncc(F)c(Nc4cccc(O)c4)n3)ccc2o1 , please? 270

###

Assign pIC50 to each entry below.
System: cultured human mast cells (CHMC)
experimentSummary: CHMC low cell density ionomycin activation: tryptase assay
Format: cell-based
conditionInfo: Homo sapiens, Mast cell, Low Density CHMC, ionomycin activation, tryptase readout; read-out: CHMC Ionomycin Tryptase
pIC50: −log10 of the molar value.

Recorded pIC50 for CCOC(=O)c1cnc(Nc2cccc(O)c2)nc1NOCc1ccccc1 , please? < 5.00

Recorded pIC50 for NC12OCCON1C(Nc1ccc3oc(CO)cc3c1)=NC=C2F (centres unmarked) , please? < 5.00

Recorded pIC50 for c1cc(Nc2ccc3c(c2)OCCO3)nc(Nc2ccc3c(c2)OCCO3)n1 , please? < 5.00

Recorded pIC50 for Nc1cc(Nc2ncc(F)c(Nc3ccc(F)c(N)c3)n2)ccc1F , please? < 5.00

Recorded pIC50 for COC(=O)c1cc2cc(Nc3ncc(F)c(Nc4cccc(C(C)(C)C)c4)n3)ccc2o1 , please? 5.26

Recorded pIC50 for CC(C)c1ccc(Nc2ncc(F)c(Nc3ccc4c(c3)OCCO4)n2)cc1 , please? 5.13

Recorded pIC50 for COC(=O)C1Cc2cc(Nc3ncc(F)c(Nc4ccc(OC(F)(F)F)c(Cl)c4)n3)ccc2O1 (centres unmarked) , please? < 5.00

Recorded pIC50 for CC(C)(CO)c1ccc(Nc2nc(Nc3ccc(OCCO)cc3)ncc2F)cc1 , please? < 5.00

Recorded pIC50 for Oc1cccc(Nc2nc(Nc3cccc(-c4cnco4)c3)ncc2F)c1 , please? 5.00

Recorded pIC50 for Cc1cnc(Nc2ccccc2-c2ccccc2)nc1Nc1ccccc1-c1ccccc1 , please? < 5.00

Recorded pIC50 for CNC(=O)C1Cc2cc(Nc3ncc(F)c(Nc4ccc(OC(F)(F)F)c(Cl)c4)n3)ccc2O1 (centres unmarked) , please? < 5.00

Recorded pIC50 for CCOC(=O)Cc1ccc(Nc2ncc(C#N)c(Nc3ccc(CC(=O)OCC)cc3)n2)cc1 , please? < 5.00

Recorded pIC50 for N#Cc1cnc(Nc2ccc3c(c2)OCCO3)nc1Nc1ccc2c(c1)OCCO2 , please? < 5.00

Recorded pIC50 for CCOC(=O)c1nc(Nc2cccc(O)c2)nc(Nc2cccc(O)c2)c1N , please? < 5.00

Recorded pIC50 for Oc1cccc(Nc2nc(Nc3ccc4[nH]ccc4c3)ncc2F)c1 , please? < 5.00

Recorded pIC50 for Fc1cnc(NCc2ccccc2)nc1NCc1ccccc1 , please? < 5.00

Recorded pIC50 for CN(C)CCOc1cccc(Nc2ncc(F)c(Nc3ccc4c(c3)OCCO4)n2)c1 , please? < 5.00

###

Tested on: cultured human mast cells (CHMC)
experimentSummary: CHMC high cell density IgE activation: degranulation (hexos, tryptase, histamine), leukotriene (LTC4) and cytokine (TNFalpha, IL-13) assays
Format: cell-based
conditionInfo: anti-IgE activation, IL-13, read-out: CHMC high density IL-13
Assign pIC50 to each entry below.
On this scale, pIC50 is minus log10 of a concentration expressed in M (mol/L).

Kindly state the measured pIC50 obtained for Nc1cccc(Nc2ncc(F)c(Nc3cccc(N)c3)n2)c1 with cultured human mast cells (CHMC). 5.78

Kindly state the measured pIC50 obtained for COC(=O)c1cc2cc(Nc3ncc(F)c(Nc4cccc(O)c4)n3)ccc2o1 with cultured human mast cells (CHMC). 5.19

Kindly state the measured pIC50 obtained for Cc1cc(Nc2ncc(F)c(Nc3cccc(O)c3)n2)cc(Cl)c1O with cultured human mast cells (CHMC). 5.75

Kindly state the measured pIC50 obtained for Oc1cccc(Nc2ncc(F)c(Nc3cccc(O)c3)n2)c1 with cultured human mast cells (CHMC). 5.68

###

Assign IC50 to each entry below.
System: cultured human mast cells (CHMC)
experimentSummary: CHMC low cell density ionomycin activation: tryptase assay
Type: cell-based
conditionInfo: Homo sapiens, Mast cell, Low Density CHMC, ionomycin activation, tryptase readout; read-out: CHMC Ionomycin Tryptase

Kindly state the measured IC50 obtained for COC(=O)c1cc2cc(Nc3ncc(F)c(Nc4ccc5c(c4)OCCO5)n3)ccc2o1 [Compound R926690] with cultured human mast cells (CHMC). > 10 µM

Kindly state the measured IC50 obtained for Brc1cnc(Nc2ccc3c(c2)OCCO3)nc1Nc1ccc2c(c1)OCCO2 [Compound R925771] with cultured human mast cells (CHMC). 2.8 µM

Kindly state the measured IC50 obtained for COc1ccc(Nc2ncc(F)c(Nc3ccc(OC)c(OC)c3)n2)cc1OC [Compound R926110] with cultured human mast cells (CHMC). > 10 µM

Kindly state the measured IC50 obtained for COc1ccc(Nc2ncc(Br)c(Nc3ccc(OC)c(-c4ccccc4)c3)n2)cc1-c1ccccc1 [Compound R925802] with cultured human mast cells (CHMC). > 10 µM

Kindly state the measured IC50 obtained for O=[N+]([O-])c1cnc(Nc2ccc3c(c2)OC(F)(F)O3)nc1Nc1ccc2c(c1)OC(F)(F)O2 [Compound R940100] with cultured human mast cells (CHMC). > 10 µM

Kindly state the measured IC50 obtained for CC(C)Oc1cccc(Nc2ncc(F)c(Nc3cccc(N)c3)n2)c1 [Compound R950164] with cultured human mast cells (CHMC). > 10 µM

Kindly state the measured IC50 obtained for CCOC(=O)C=Nc1cccc(Nc2nc(N(CC(=O)OCC)c3cccc(N=CC(=O)OCC)c3)ncc2F)c1 [Compound R950183] with cultured human mast cells (CHMC). > 10 µM

Kindly state the measured IC50 obtained for CCOC(=O)CNc1nc(NCC(=O)OCC)c([N+](=O)[O-])c(C(=O)OCC)n1 [Compound R925864] with cultured human mast cells (CHMC). > 10 µM

Kindly state the measured IC50 obtained for CC(C)Oc1ccc(Nc2ncc(F)c(Nc3ccc(C(C)(C)CO)cc3)n2)cc1 [Compound R935168] with cultured human mast cells (CHMC). 9.48 µM

Kindly state the measured IC50 obtained for COc1cc(Nc2nc(Nc3cccc(OCCO)c3)ncc2F)cc(OC)c1 [Compound R935181] with cultured human mast cells (CHMC). > 10 µM

Kindly state the measured IC50 obtained for Cc1cc(Nc2nc(Nc3cccc(O)c3)ncc2F)cc(Cl)c1O [Compound R940235] with cultured human mast cells (CHMC). > 10 µM

Kindly state the measured IC50 obtained for COc1cc(Nc2ncc(F)c(Nc3cccc(O)c3)n2)cc(OC)c1OC [Compound R926761] with cultured human mast cells (CHMC). > 10 µM

Kindly state the measured IC50 obtained for N#Cc1cnc(Nc2cccc(O)c2)nc1Nc1cccc(O)c1 [Compound R925774] with cultured human mast cells (CHMC). > 10 µM

Kindly state the measured IC50 obtained for COC(=O)C1Cc2cc(Nc3ncc(F)c(Nc4ccc(Cl)c(Cl)c4)n3)ccc2O1 (racemic) [Compound R927031] with cultured human mast cells (CHMC). 99 µM

Kindly state the measured IC50 obtained for CC(C)Oc1ccc(Nc2nc(Nc3ccc(OCC(O)CO)cc3)ncc2F)cc1 (stereo not shown) [Compound R935175] with cultured human mast cells (CHMC). > 10 µM

Kindly state the measured IC50 obtained for CC(C)(C)c1ccc(Nc2nc(Nc3ccc4oc(C(=O)O)cc4c3)ncc2F)cc1 [Compound R926481] with cultured human mast cells (CHMC). > 10 µM
